target: interaction of ICAM-1 with the Leukointegrin CD18/CD11a (LFA-1) (Homo sapiens, UniProt P05107+P20701); construct: endogenous in cells; sICAM-1: made in house, secreted from transfected CHO DUX cells; test: Assay to determine inhibition of LFA-1 binding to ICAM-1 (immunopurified LFA-1 on plate-bound sICAM-1, ELISA readout)
Sequence (P20701 26-1170): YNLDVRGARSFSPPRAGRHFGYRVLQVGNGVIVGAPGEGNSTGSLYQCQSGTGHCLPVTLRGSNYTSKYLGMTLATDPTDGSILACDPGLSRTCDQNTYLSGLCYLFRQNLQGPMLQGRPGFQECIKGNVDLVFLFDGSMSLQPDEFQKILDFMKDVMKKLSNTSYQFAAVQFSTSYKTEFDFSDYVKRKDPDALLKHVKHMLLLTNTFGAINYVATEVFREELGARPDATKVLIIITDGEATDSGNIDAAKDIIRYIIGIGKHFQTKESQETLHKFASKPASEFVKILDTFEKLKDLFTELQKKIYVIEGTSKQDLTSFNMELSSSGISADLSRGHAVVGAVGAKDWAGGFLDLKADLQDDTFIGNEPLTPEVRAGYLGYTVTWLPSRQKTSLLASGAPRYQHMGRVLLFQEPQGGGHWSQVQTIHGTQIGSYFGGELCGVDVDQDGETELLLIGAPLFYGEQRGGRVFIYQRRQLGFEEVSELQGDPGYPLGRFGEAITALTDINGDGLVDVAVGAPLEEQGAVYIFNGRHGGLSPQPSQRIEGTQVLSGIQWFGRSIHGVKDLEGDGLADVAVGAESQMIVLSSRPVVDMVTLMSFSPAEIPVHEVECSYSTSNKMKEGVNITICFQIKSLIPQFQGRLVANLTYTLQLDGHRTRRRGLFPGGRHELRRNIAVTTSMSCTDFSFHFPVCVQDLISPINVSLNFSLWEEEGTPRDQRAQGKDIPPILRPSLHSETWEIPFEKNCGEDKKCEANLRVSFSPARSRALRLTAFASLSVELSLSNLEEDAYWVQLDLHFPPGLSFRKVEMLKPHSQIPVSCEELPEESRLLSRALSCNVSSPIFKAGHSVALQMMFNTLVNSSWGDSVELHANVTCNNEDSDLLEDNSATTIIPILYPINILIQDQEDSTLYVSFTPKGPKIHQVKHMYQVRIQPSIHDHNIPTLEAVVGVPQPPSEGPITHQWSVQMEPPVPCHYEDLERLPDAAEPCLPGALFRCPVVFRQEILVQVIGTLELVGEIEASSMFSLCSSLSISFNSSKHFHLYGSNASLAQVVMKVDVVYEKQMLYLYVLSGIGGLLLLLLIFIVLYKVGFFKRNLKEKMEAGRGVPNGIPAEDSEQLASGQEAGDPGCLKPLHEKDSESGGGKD
Sequence (P05107 23-769): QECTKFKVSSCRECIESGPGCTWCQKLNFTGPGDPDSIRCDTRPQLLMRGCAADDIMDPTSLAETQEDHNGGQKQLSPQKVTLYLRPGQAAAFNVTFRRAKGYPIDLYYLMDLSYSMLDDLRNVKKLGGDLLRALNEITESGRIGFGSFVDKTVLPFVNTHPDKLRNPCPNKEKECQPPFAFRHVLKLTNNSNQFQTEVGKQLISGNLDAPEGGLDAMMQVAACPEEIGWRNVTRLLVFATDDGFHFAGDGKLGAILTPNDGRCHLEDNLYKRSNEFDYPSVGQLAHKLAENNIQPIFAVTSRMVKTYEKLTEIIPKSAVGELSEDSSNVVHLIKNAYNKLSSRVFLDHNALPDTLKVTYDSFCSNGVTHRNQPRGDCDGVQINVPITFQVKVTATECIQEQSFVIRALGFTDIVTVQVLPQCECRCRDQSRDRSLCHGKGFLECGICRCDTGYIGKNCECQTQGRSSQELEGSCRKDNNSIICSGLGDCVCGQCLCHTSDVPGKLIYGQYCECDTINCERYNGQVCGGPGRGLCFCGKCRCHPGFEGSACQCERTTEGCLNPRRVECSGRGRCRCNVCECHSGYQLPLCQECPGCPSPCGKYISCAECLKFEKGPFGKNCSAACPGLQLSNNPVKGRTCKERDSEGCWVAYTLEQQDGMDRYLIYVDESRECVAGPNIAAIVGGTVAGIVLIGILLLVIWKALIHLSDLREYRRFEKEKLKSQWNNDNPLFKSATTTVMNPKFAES
pKd: −log10 of the molar value.

{"COMPOUND": "CCN1C(=O)N(c2cc(Cl)cc(Cl)c2)C(=O)[C@]1(C)Cc1ccc(Br)cc1 [Example 275]", "pKd": 5.70}
{"COMPOUND": "C[C@@]1(Cc2ccc(Br)cc2)C(=O)N(c2cc(Cl)cc(Cl)c2)C(=O)N1CCCCn1ccnc1 [Example 252]", "pKd": 6.96}
{"COMPOUND": "C[C@@]1(Cc2ccc(Br)cc2)C(=O)N(c2cc(Cl)cc(Cl)c2)C(=O)N1CCCCC[N+](C)(C)C [Example 255]", "pKd": 6.85}
{"COMPOUND": "C[C@@]1(Cc2ccc(Br)cc2)C(=O)N(c2cc(Cl)cc(Cl)c2)C(=O)N1CCCCCP(=O)(O)O [Example 221]", "pKd": 6.85}
{"COMPOUND": "C[C@]1(Cc2ccc(C(=O)c3ccccc3)cc2)NC(=O)N(c2cc(Cl)cc(Cl)c2)C1=O [Example 216]", "pKd": 6.30}
{"COMPOUND": "C[C@]1(Cc2ccc(C(=O)c3ccccc3)cc2)NC(=O)N(c2cc(Cl)cc(Cl)c2)C1=O [Example 215]", "pKd": 6.70}
{"COMPOUND": "C[C@@]1(Cc2ccc(Br)cc2)C(=O)N(c2cc(Cl)cc(Cl)c2)C(=O)N1C(=O)[C@@H](N)CO [Example 233]", "pKd": 5.75}

----------
Listing of entries alongside the reported Kd.
biological target: interaction of ICAM-1 with the Leukointegrin CD18/CD11a (LFA-1) (Homo sapiens, UniProt P05107+P20701); construct: endogenous in cells; sICAM-1: made in house, secreted from transfected CHO DUX cells; assay: Assay to determine inhibition of LFA-1 binding to ICAM-1 (immunopurified LFA-1 on plate-bound sICAM-1, ELISA readout)
OBSERVED_PROPERTY: Kd (µM)

{"MOLECULE": "C[C@@]1(Cc2ccc(Br)cc2)C(=O)N(c2cc(Cl)cc(Cl)c2)C(=O)N1Cc1cccc(C(=N)N)c1 [Example 243]", "OBSERVED_PROPERTY": "Kd", "RESULT_UNITS": "µM", "OBSERVED_MEASUREMENT": 0.11}
{"MOLECULE": "CN1C(=O)N(c2cc(Cl)cc(Cl)c2)C(=O)C1(CN)Cc1ccc(Br)cc1 (stereo not shown) [Example 230]", "OBSERVED_PROPERTY": "Kd", "RESULT_UNITS": "µM", "OBSERVED_MEASUREMENT": 2.2}
{"MOLECULE": "CC1(Cc2ccc(-c3cc4ccccc4o3)cc2)NC(=O)N(c2cc(Cl)cc(Cl)c2)C1=O (stereo not shown) [Example 209]", "OBSERVED_PROPERTY": "Kd", "RESULT_UNITS": "µM", "OBSERVED_MEASUREMENT": 0.94}
{"MOLECULE": "CCCN1C(=O)N(c2cc(Cl)cc(Cl)c2)C(=O)[C@]1(C)Cc1ccc(Br)cc1 [Example 276]", "OBSERVED_PROPERTY": "Kd", "RESULT_UNITS": "µM", "OBSERVED_MEASUREMENT": 1.11}

----------
Collected Kd values appear next to each entry.
target: interaction of ICAM-1 with the Leukointegrin CD18/CD11a (LFA-1) (Homo sapiens, UniProt P05107+P20701); construct: endogenous in cells; sICAM-1: made in house, secreted from transfected CHO DUX cells; assay: Assay to determine inhibition of LFA-1 binding to ICAM-1 (immunopurified LFA-1 on plate-bound sICAM-1, ELISA readout); conditions: values marked e approximated from incomplete dose-response curve
OBSERVED_PROPERTY: Kd (µM)

{"COMPOUND": "CCC1(Cc2ccccc2)NC(=O)N(c2cc(Cl)cc(Cl)c2)C1=O (centres unmarked)", "OBSERVED_MEASUREMENT": 1.48}
{"COMPOUND": "CN1C(=O)N(c2cc(Cl)cc(Cl)c2)C(=O)C1(C)Cc1ccc(C(F)(F)F)cc1 (centres unmarked)", "OBSERVED_MEASUREMENT": 0.18}
{"COMPOUND": "CC1(Cc2ccc(Cl)s2)NC(=O)N(c2cc(Cl)cc(Cl)c2)C1=O (centres unmarked)", "OBSERVED_MEASUREMENT": 1.45}
{"COMPOUND": "O=C1NC(Cc2ccc(Br)cc2)C(=O)N1c1cc(Cl)cc(Cl)c1 (centres unmarked)", "OBSERVED_MEASUREMENT": 0.76}
{"COMPOUND": "O=C1NC(Cc2ccc3ccccc3c2)C(=O)N1c1cc(Cl)cc(Cl)c1 (centres unmarked)", "OBSERVED_MEASUREMENT": 3.01}
{"COMPOUND": "CC1(Cc2ccc(-c3ccc(C(F)(F)F)cc3)cc2)NC(=O)N(c2cc(Cl)cc(Cl)c2)C1=O (centres unmarked)", "OBSERVED_MEASUREMENT": 0.65}
{"COMPOUND": "CC1(Cc2ccc(-c3ccccc3F)cc2)NC(=O)N(c2cc(Cl)cc(Cl)c2)C1=O (centres unmarked)", "OBSERVED_MEASUREMENT": 0.09}
{"COMPOUND": "CC(=O)N1C(=O)N(c2cc(Cl)cc(Cl)c2)C(=O)[C@@]1(C)Cc1ccc(-c2cccnc2)cc1", "OBSERVED_MEASUREMENT": 0.11}
{"COMPOUND": "CC(=O)N1C(=O)N(c2cc(Cl)cc(Cl)c2)C(=O)[C@@]1(C)Cc1ccc([N+](=O)[O-])cc1", "OBSERVED_MEASUREMENT": 0.2}
{"COMPOUND": "CN1CCC(N2C(=O)N(c3cc(Cl)cc(Cl)c3)C(=O)[C@@]2(C)Cc2ccc(Br)cc2)CC1", "OBSERVED_MEASUREMENT": 0.16}
{"COMPOUND": "CCN1C(=O)N(c2cc(Cl)cc(Cl)c2)C(=O)C1(C)Cc1ccccc1 (centres unmarked)", "OBSERVED_MEASUREMENT": 0.29}
{"COMPOUND": "CN1C(=O)N(c2cc(Cl)cc(Cl)c2)C(=O)C1(C)Cc1ccc(Cl)cc1 (centres unmarked)", "OBSERVED_MEASUREMENT": 0.094}
{"COMPOUND": "CN1C(=O)N(c2cc(Cl)cc(Cl)c2)C(=O)C1Cc1ccc(Br)cc1 (centres unmarked)", "OBSERVED_MEASUREMENT": 0.12}
{"COMPOUND": "CC1(Cc2ccccc2)CC(=O)N(c2cc(Cl)cc(Cl)c2)C1=O (centres unmarked)", "OBSERVED_MEASUREMENT": 0.29}
{"COMPOUND": "CC1(Cc2cccc(C(F)(F)F)c2)NC(=O)N(c2cc(Cl)cc(Cl)c2)C1=O (centres unmarked)", "OBSERVED_MEASUREMENT": 1.47}
{"COMPOUND": "CN1C(=O)N(c2cc(C(F)(F)F)cc(C(F)(F)F)c2)C(=O)C1(C)Cc1ccccc1 (centres unmarked) [Example 83]", "OBSERVED_MEASUREMENT": 0.3}
{"COMPOUND": "CCOc1cccc(-c2ccc(CC3(C)NC(=O)N(c4cc(Cl)cc(Cl)c4)C3=O)cc2)c1 (centres unmarked)", "OBSERVED_MEASUREMENT": 0.14}

----------
In what follows, each item is paired with its Cellular Toxicity Assay MTT LD50 for SKW3 cells.

{"COMPOUND": "C[C@@]1(Cc2ccc(Br)cc2)C(=O)N(c2cc(Cl)cc(Cl)c2)C(=O)N1CCCCC#N", "Cellular Toxicity Assay MTT LD50": "150 to 300 µM"}
{"COMPOUND": "CN1C(=O)N(c2cc(C(F)(F)F)cc(C(F)(F)F)c2)C(=O)[C@]1(C)Cc1ccccc1", "Cellular Toxicity Assay MTT LD50": "250 to 500 µM"}
{"COMPOUND": "C[C@@]1(Cc2ccc(Br)cc2)C(=O)N(c2cc(Cl)cc(Cl)c2)C(=O)N1Cc1ccccn1", "Cellular Toxicity Assay MTT LD50": "200 to 400 µM"}
{"COMPOUND": "CCCN1C(=O)N(c2cc(Cl)cc(Cl)c2)C(=O)[C@]1(C)Cc1ccc(Br)cc1", "Cellular Toxicity Assay MTT LD50": "375 µM"}
{"COMPOUND": "C[C@@]1(Cc2ccc(Br)cc2)C(=O)N(c2cc(Cl)cc(Cl)c2)C(=O)N1C(=O)C1CCCN1 (stereo partly shown)", "Cellular Toxicity Assay MTT LD50": "100 to 200 µM"}
{"COMPOUND": "CN1C(=O)N(c2cc(Cl)cc(Cl)c2)C(=O)C1(C)Cc1cccc(Br)c1 (stereo not shown)", "Cellular Toxicity Assay MTT LD50": "170 to 340 µM"}
{"COMPOUND": "CC1(Cc2ccc(Br)cc2)OC(=O)N(c2cc(Cl)cc(Cl)c2)C1=O (stereo not shown)", "Cellular Toxicity Assay MTT LD50": "200 to 400 µM"}
{"COMPOUND": "C[C@@]1(Cc2ccc([N+](=O)[O-])cc2)C(=O)N(c2cc(Cl)cc(Cl)c2)C(=O)N1S(C)(=O)=O", "Cellular Toxicity Assay MTT LD50": "150 to 300 µM"}
{"COMPOUND": "CN1C(=O)N(c2cc(C(F)(F)F)cc(C(F)(F)F)c2)C(=O)[C@@]1(C)Cc1ccccc1", "Cellular Toxicity Assay MTT LD50": "250 µM"}
{"COMPOUND": "CN1C(=O)N(c2cc(Cl)cc(Cl)c2)C(=O)C1(CCO)Cc1ccc(Br)cc1 (stereo not shown)", "Cellular Toxicity Assay MTT LD50": "200 to 400 µM"}
{"COMPOUND": "CN1C(=O)N(c2cc(Cl)cc(Cl)c2)C(=O)[C@]1(C)Cc1ccc(Br)cc1", "Cellular Toxicity Assay MTT LD50": "250 to 500 µM"}
{"COMPOUND": "[2H]C([2H])([2H])N1C(=O)N(c2cc(Cl)cc(Cl)c2)C(=O)[C@@]1(C)Cc1ccc(Br)cc1", "Cellular Toxicity Assay MTT LD50": "100 to 200 µM"}
{"COMPOUND": "COCN1C(=O)N(c2cc(Cl)cc(Cl)c2)C(=O)[C@@]1(C)Cc1ccc(Br)cc1", "Cellular Toxicity Assay MTT LD50": ">400 µM"}
{"COMPOUND": "CC1(Cc2ccc(Br)cc2)C(=O)N(c2cc(Cl)cc(Cl)c2)C(=O)N1C1CC1 (stereo not shown)", "Cellular Toxicity Assay MTT LD50": "160 to 230 µM"}
{"COMPOUND": "CN1C(=O)N(c2cc(Cl)c(Cl)c(Cl)c2)C(=O)[C@@]1(C)Cc1ccc(Br)cc1", "Cellular Toxicity Assay MTT LD50": "50 to 100 µM"}
{"COMPOUND": "CC1(Cc2c[nH]c3ccccc23)NC(=O)N(c2cc(Cl)cc(Cl)c2)C1=O (stereo not shown) [Example 23]", "Cellular Toxicity Assay MTT LD50": "50 to 100 µM"}
